assay: Plasma pharmacokinetics of SHR9146 in mice (LC-MS/MS, non-compartmental analysis); type: in vivo, ICR mice; conditions: both sexes, ICR, mouse, plasma, po, 80 mg/kg, 80 mg/kg i.g. single dose; all mice (Totol, 3 male + 3 female); plasma; read-out: Cmax
readoutName: Cmax (ng/mL)
Output spec: scalar in ng/mL, unitless text.

Entry under review: OCCn1cc(-c2ccc(N3CCC([C@H]4c5c(F)cccc5-c5cncn54)CC3)cc2)cn1 . Reported Cmax?
17100

* * *

experiment: Tissue distribution of SHR9146 in mice after oral gavage of 40 mg/kg; type: in vivo, ICR mice; conditions: female, ICR, mouse, brain, po, 40 mg/kg, female, 6 h, 40 mg/kg oral gavage, Mean (n=3); read-out: SHR9146 concentration in Brain
readoutName: concentration at 6 h (ng/g)
The figure you give is taken to be in ng/g; do not add the unit.

Form field: reported concentration at 6 h of OCCn1cc(-c2ccc(N3CCC([C@H]4c5c(F)cccc5-c5cncn54)CC3)cc2)cn1
87
